- subjectOfTest: human Focal Adhesion Kinase (FAK) (Homo sapiens, UniProt Q05397)
- Construct: FAK (fall length human cDNA described by Andre et al); printed 'Sf12'), baculovirus, pFastbac 1; cell lysate supernatant used as enzyme stock
- Sequence (Q05397 whole entry): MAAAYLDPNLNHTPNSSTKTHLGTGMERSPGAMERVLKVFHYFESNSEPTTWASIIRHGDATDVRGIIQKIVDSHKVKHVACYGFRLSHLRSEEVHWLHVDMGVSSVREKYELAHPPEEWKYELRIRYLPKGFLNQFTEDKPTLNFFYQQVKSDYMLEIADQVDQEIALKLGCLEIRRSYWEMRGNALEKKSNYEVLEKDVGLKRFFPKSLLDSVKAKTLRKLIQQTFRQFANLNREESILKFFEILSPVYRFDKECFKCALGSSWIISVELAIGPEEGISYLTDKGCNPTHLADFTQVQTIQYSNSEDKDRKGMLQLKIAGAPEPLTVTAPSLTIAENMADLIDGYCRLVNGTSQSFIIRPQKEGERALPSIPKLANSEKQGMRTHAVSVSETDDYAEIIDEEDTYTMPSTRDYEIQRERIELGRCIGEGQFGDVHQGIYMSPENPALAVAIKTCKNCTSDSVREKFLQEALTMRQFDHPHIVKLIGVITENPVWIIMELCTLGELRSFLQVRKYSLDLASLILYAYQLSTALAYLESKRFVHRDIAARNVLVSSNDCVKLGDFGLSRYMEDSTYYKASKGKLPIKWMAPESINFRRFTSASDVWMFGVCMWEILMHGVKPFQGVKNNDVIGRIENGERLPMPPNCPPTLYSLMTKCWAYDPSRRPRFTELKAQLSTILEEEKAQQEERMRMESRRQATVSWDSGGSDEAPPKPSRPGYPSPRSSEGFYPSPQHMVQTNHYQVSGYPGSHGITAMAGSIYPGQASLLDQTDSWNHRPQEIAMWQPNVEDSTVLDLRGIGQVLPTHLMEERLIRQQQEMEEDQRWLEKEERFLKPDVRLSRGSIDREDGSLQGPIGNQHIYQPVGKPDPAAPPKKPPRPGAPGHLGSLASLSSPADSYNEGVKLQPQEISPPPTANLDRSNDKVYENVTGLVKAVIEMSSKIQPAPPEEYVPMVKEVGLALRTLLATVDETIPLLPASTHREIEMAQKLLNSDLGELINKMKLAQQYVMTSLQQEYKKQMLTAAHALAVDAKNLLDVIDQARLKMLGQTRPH
- assayText: FAK3 Kinase Inhibition Assay (in vitro enzyme ELISA)
- runConditions: read-out: FAK inhibitory activity IC50
assayMetric: pIC50
Schema: pIC50 number; meaning minus log10 of the concentration expressed in molar units.

For CCCCN(CCCC)CCCNC(=O)c1ccc(Nc2ncc(Br)c(Nc3ccccc3)n2)cc1 [Example 47] , what is its reported pIC50?
7.01

Here is another compound to look at.
For O=C(c1ccc(Nc2ncc(Br)c(Nc3ccccc3)n2)cc1)N1CCC(N2CCCC2)CC1 [Example 52] , what is its reported pIC50?
6.09
